From: the supplement of paper PMC9112550

Test system: Escherichia coli TOP10
Assay: shrunken log2 fold change of peptide-encoding DNA abundance (4.5 h post-induction vs induction); higher = less antimicrobial activity (less host growth inhibition)
Conditions: time post-induction: 4.5 h; library: site-saturation at positions 5, 18, 19, 20
Think of -0.1 as a floor: if shrunken log2 fold change stands on it or above, it is Yes; beneath it, No.

{"polymer_sequence": "RRIRWRPPRLPRPRPRPNSQPRP", "qualitative_label": "Yes"}
{"polymer_sequence": "RRIRFRPPRLPRPRPRPVAPPRP", "qualitative_label": "Yes"}
{"polymer_sequence": "RRIRGRPPRLPRPRPRPGGSPRP", "qualitative_label": "Yes"}
{"polymer_sequence": "RRIRHRPPRLPRPRPRPPQNPRP", "qualitative_label": "Yes"}
{"polymer_sequence": "RRIRFRPPRLPRPRPRPEAAPRP", "qualitative_label": "Yes"}
{"polymer_sequence": "RRIRCRPPRLPRPRPRPQVRPRP", "qualitative_label": "No"}
{"polymer_sequence": "RRIRPRPPRLPRPRPRPYDTPRP", "qualitative_label": "Yes"}
{"polymer_sequence": "RRIRWRPPRLPRPRPRPNLGPRP", "qualitative_label": "Yes"}
{"polymer_sequence": "RRIRLRPPRLPRPRPRPIHTPRP", "qualitative_label": "No"}
{"polymer_sequence": "RRIRVRPPRLPRPRPRPQNEPRP", "qualitative_label": "No"}
{"polymer_sequence": "RRIRMRPPRLPRPRPRPHKAPRP", "qualitative_label": "Yes"}
{"polymer_sequence": "RRIRWRPPRLPRPRPRPFDEPRP", "qualitative_label": "Yes"}
{"polymer_sequence": "RRIRLRPPRLPRPRPRPQQSPRP", "qualitative_label": "Yes"}
{"polymer_sequence": "RRIRQRPPRLPRPRPRPSCWPRP", "qualitative_label": "Yes"}
{"polymer_sequence": "RRIRWRPPRLPRPRPRPPKIPRP", "qualitative_label": "Yes"}
{"polymer_sequence": "RRIRVRPPRLPRPRPRPIHIPRP", "qualitative_label": "No"}
{"polymer_sequence": "RRIRIRPPRLPRPRPRPCARPRP", "qualitative_label": "Yes"}
{"polymer_sequence": "RRIRWRPPRLPRPRPRPLYAPRP", "qualitative_label": "Yes"}
{"polymer_sequence": "RRIRARPPRLPRPRPRPQFQPRP", "qualitative_label": "Yes"}
{"polymer_sequence": "RRIRTRPPRLPRPRPRPTEYPRP", "qualitative_label": "No"}
{"polymer_sequence": "RRIRGRPPRLPRPRPRPMGRPRP", "qualitative_label": "Yes"}
{"polymer_sequence": "RRIRYRPPRLPRPRPRPSYDPRP", "qualitative_label": "No"}
{"polymer_sequence": "RRIRFRPPRLPRPRPRPMSAPRP", "qualitative_label": "No"}
{"polymer_sequence": "RRIRLRPPRLPRPRPRPYSDPRP", "qualitative_label": "Yes"}
{"polymer_sequence": "RRIRWRPPRLPRPRPRPFHIPRP", "qualitative_label": "No"}
{"polymer_sequence": "RRIRTRPPRLPRPRPRPMHIPRP", "qualitative_label": "No"}
{"polymer_sequence": "RRIRYRPPRLPRPRPRPWHYPRP", "qualitative_label": "No"}
{"polymer_sequence": "RRIRHRPPRLPRPRPRPLSCPRP", "qualitative_label": "No"}
{"polymer_sequence": "RRIRMRPPRLPRPRPRPAPQPRP", "qualitative_label": "Yes"}
{"polymer_sequence": "RRIRERPPRLPRPRPRPDSLPRP", "qualitative_label": "No"}
{"polymer_sequence": "RRIRIRPPRLPRPRPRPYFEPRP", "qualitative_label": "No"}
{"polymer_sequence": "RRIRPRPPRLPRPRPRPPQRPRP", "qualitative_label": "Yes"}
{"polymer_sequence": "RRIRKRPPRLPRPRPRPEEHPRP", "qualitative_label": "Yes"}
{"polymer_sequence": "RRIRDRPPRLPRPRPRPMSAPRP", "qualitative_label": "No"}
{"polymer_sequence": "RRIRRRPPRLPRPRPRPDEHPRP", "qualitative_label": "Yes"}
{"polymer_sequence": "RRIRFRPPRLPRPRPRPQEEPRP", "qualitative_label": "Yes"}
{"polymer_sequence": "RRIRSRPPRLPRPRPRPNIGPRP", "qualitative_label": "No"}
{"polymer_sequence": "RRIRVRPPRLPRPRPRPVGDPRP", "qualitative_label": "Yes"}
{"polymer_sequence": "RRIRRRPPRLPRPRPRPSMAPRP", "qualitative_label": "No"}
{"polymer_sequence": "RRIRGRPPRLPRPRPRPFDKPRP", "qualitative_label": "No"}
{"polymer_sequence": "RRIRDRPPRLPRPRPRPHAMPRP", "qualitative_label": "Yes"}

====

Tested on: Escherichia coli TOP10
Experiment: shrunken log2 fold change of peptide-encoding DNA abundance (4.5 h post-induction vs induction); higher = less antimicrobial activity (less host growth inhibition)
Conditions: time post-induction: 4.5 h; library: site-saturation at positions 5, 18, 19, 20
Category key, based on recorded shrunken log2 fold change: class 0 (below -0.1), class 1 (-0.1 to below 0.07), class 2 (0.07 or more)

{"polymer_sequence": "RRIRYRPPRLPRPRPRPIDTPRP", "system_under_test": "Escherichia coli TOP10", "qualitative_label": "class 1"}
{"polymer_sequence": "RRIRPRPPRLPRPRPRPDARPRP", "system_under_test": "Escherichia coli TOP10", "qualitative_label": "class 2"}
{"polymer_sequence": "RRIRIRPPRLPRPRPRPSWTPRP", "system_under_test": "Escherichia coli TOP10", "qualitative_label": "class 0"}
{"polymer_sequence": "RRIRDRPPRLPRPRPRPAQKPRP", "system_under_test": "Escherichia coli TOP10", "qualitative_label": "class 1"}
{"polymer_sequence": "RRIRFRPPRLPRPRPRPPDWPRP", "system_under_test": "Escherichia coli TOP10", "qualitative_label": "class 2"}
{"polymer_sequence": "RRIRFRPPRLPRPRPRPSFWPRP", "system_under_test": "Escherichia coli TOP10", "qualitative_label": "class 1"}
{"polymer_sequence": "RRIRSRPPRLPRPRPRPKMTPRP", "system_under_test": "Escherichia coli TOP10", "qualitative_label": "class 2"}
{"polymer_sequence": "RRIRVRPPRLPRPRPRPFWPPRP", "system_under_test": "Escherichia coli TOP10", "qualitative_label": "class 2"}
{"polymer_sequence": "RRIRWRPPRLPRPRPRPNVVPRP", "system_under_test": "Escherichia coli TOP10", "qualitative_label": "class 0"}
{"polymer_sequence": "RRIRNRPPRLPRPRPRPEAQPRP", "system_under_test": "Escherichia coli TOP10", "qualitative_label": "class 1"}
{"polymer_sequence": "RRIRCRPPRLPRPRPRPICFPRP", "system_under_test": "Escherichia coli TOP10", "qualitative_label": "class 0"}
{"polymer_sequence": "RRIRLRPPRLPRPRPRPKFEPRP", "system_under_test": "Escherichia coli TOP10", "qualitative_label": "class 1"}
{"polymer_sequence": "RRIRNRPPRLPRPRPRPRMIPRP", "system_under_test": "Escherichia coli TOP10", "qualitative_label": "class 1"}
{"polymer_sequence": "RRIRERPPRLPRPRPRPRANPRP", "system_under_test": "Escherichia coli TOP10", "qualitative_label": "class 0"}
{"polymer_sequence": "RRIRFRPPRLPRPRPRPFHEPRP", "system_under_test": "Escherichia coli TOP10", "qualitative_label": "class 0"}
{"polymer_sequence": "RRIRCRPPRLPRPRPRPCRSPRP", "system_under_test": "Escherichia coli TOP10", "qualitative_label": "class 2"}
{"polymer_sequence": "RRIRHRPPRLPRPRPRPDKLPRP", "system_under_test": "Escherichia coli TOP10", "qualitative_label": "class 1"}
{"polymer_sequence": "RRIRTRPPRLPRPRPRPVMSPRP", "system_under_test": "Escherichia coli TOP10", "qualitative_label": "class 0"}
{"polymer_sequence": "RRIRFRPPRLPRPRPRPIKAPRP", "system_under_test": "Escherichia coli TOP10", "qualitative_label": "class 0"}
{"polymer_sequence": "RRIRGRPPRLPRPRPRPIVCPRP", "system_under_test": "Escherichia coli TOP10", "qualitative_label": "class 2"}

====

System: Escherichia coli TOP10;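 also: peptides expressed intracellularly from a pBAD plasmid library in pooled LB shake-flask culture, induced with 0.3% L-arabinose, DNA abundance read by NGS, three biological replicates, DESeq2 with apeglm shrinkage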
Assay: shrunken log2 fold change of peptide-encoding DNA abundance (4.5 h post-induction vs induction); higher = less antimicrobial activity (less host growth inhibition)
Conditions: time post-induction: 4.5 h; library: site-saturation at positions 5, 18, 19, 20
Listing of entries alongside the reported shrunken log2 fold change.
property_measured: shrunken log2 fold change

{"polymer_sequence": "RRIRRRPPRLPRPRPRPFDIPRP", "system_under_test": "Escherichia coli TOP10", "value_measured": -0.0362}
{"polymer_sequence": "RRIRARPPRLPRPRPRPAWCPRP", "system_under_test": "Escherichia coli TOP10", "value_measured": 1.28}
{"polymer_sequence": "RRIRCRPPRLPRPRPRPDFYPRP", "system_under_test": "Escherichia coli TOP10", "value_measured": -0.629}
{"polymer_sequence": "RRIRYRPPRLPRPRPRPVTAPRP", "system_under_test": "Escherichia coli TOP10", "value_measured": -0.298}
{"polymer_sequence": "RRIRARPPRLPRPRPRPEIGPRP", "system_under_test": "Escherichia coli TOP10", "value_measured": 0.675}
{"polymer_sequence": "RRIRPRPPRLPRPRPRPVACPRP", "system_under_test": "Escherichia coli TOP10", "value_measured": -0.0233}
{"polymer_sequence": "RRIRLRPPRLPRPRPRPCTVPRP", "system_under_test": "Escherichia coli TOP10", "value_measured": -0.0157}
{"polymer_sequence": "RRIRLRPPRLPRPRPRPRDWPRP", "system_under_test": "Escherichia coli TOP10", "value_measured": 0.847}
{"polymer_sequence": "RRIRERPPRLPRPRPRPLNFPRP", "system_under_test": "Escherichia coli TOP10", "value_measured": -0.34}
{"polymer_sequence": "RRIRERPPRLPRPRPRPCLQPRP", "system_under_test": "Escherichia coli TOP10", "value_measured": -0.218}
{"polymer_sequence": "RRIRERPPRLPRPRPRPCRPPRP", "system_under_test": "Escherichia coli TOP10", "value_measured": -0.00126}
